Molecular target: T1, cynomolgus monkey C-MET His tag, monomeric (cynomolgus monkey, UniProt A0M8R7 25-932 (Papio anubis entry))
T1 construct: also called monomeric cyno C-MET; cyCMET
T1 sequence (A0M8R7 25-932 S170N/I621T): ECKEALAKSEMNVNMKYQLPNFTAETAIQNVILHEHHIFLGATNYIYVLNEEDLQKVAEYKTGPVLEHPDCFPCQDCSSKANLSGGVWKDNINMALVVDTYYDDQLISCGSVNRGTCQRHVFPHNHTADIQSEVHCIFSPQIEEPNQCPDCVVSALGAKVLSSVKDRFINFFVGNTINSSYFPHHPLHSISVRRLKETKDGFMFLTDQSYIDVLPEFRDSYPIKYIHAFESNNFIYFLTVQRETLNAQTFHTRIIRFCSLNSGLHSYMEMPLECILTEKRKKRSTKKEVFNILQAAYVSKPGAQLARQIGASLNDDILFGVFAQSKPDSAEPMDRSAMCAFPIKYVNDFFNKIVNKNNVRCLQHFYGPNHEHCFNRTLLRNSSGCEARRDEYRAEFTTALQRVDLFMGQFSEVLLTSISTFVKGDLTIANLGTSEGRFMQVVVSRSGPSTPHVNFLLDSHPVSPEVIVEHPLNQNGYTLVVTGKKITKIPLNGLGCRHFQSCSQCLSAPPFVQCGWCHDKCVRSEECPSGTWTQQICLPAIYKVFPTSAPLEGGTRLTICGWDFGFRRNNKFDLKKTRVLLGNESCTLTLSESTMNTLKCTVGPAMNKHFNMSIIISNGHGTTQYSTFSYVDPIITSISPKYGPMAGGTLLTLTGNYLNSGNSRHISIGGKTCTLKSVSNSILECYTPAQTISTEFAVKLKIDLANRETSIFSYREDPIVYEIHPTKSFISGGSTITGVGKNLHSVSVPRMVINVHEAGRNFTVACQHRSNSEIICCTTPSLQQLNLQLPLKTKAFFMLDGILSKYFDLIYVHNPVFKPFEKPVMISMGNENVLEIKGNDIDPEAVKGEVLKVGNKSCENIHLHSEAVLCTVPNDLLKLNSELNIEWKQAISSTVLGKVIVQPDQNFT
Assay: SPR Biacore, IgG captured, monomeric C-MET-His analyte
Protocol: Affinity (KD) of purified IgGs was determined via SPR with antigen in-solution on a Biacore® 3000 (GE). […] The obtained sensorgrams were analysed using the Biacore® 3000 evaluation (BIAevaluation) software. The KD was calculated by simultaneous fitting of the association and dissociation phases to a 1:1 Langmuir binding model.
measured.property: kon (M⁻¹ s⁻¹)
Write the answer as a number in M⁻¹ s⁻¹, unit excluded.

MH2 (antibody, IgG4, V domains shown) VH: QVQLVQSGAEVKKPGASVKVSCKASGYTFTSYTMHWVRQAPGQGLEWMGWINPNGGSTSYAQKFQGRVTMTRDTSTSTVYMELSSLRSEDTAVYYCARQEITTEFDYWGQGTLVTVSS VL: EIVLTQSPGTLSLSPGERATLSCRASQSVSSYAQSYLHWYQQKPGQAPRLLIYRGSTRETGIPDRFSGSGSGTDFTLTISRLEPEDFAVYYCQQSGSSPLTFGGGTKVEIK    240000
MH4 (antibody, IgG4, V domains shown) VH: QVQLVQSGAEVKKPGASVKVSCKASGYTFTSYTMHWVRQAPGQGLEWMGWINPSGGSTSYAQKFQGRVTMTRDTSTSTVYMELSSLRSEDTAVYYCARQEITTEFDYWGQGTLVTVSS VL: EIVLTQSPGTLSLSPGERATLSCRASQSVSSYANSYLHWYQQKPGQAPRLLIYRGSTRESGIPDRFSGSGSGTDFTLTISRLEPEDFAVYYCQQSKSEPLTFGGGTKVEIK    260000
h224G11 (humanized 224G11) (antibody, human IgG4, V domains shown, also called Humanized h224G11; 224G11 IgG4(S228P)) VH: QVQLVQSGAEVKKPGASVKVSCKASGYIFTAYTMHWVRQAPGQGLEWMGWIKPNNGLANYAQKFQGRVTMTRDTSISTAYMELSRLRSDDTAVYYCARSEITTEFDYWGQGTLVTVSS VL: DIVMTQSPDSLAVSLGERATINCKSSESVDSYANSFLHWYQQKPGQPPKLLIYRASTRESGVPDRFSGSGSGTDFTLTISSLQAEDVAVYYCQQSKEDPLTFGGGTKVEIK    250000
MH11 (antibody, IgG4, V domains shown) VH: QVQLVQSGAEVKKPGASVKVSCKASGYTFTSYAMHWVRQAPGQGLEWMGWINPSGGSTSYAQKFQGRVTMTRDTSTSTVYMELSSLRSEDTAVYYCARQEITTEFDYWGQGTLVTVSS VL: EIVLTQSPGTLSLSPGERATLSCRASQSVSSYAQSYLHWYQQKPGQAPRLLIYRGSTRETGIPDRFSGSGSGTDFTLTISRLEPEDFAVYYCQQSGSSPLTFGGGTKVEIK    150000

In the following, a different binder is considered.
Please give the measured kon for this binder: 07C10 (antibody, IgG4, V domains shown) VH: QVQLVQSGAEVKKPGASVKVSCKASGYIFTAYSMHWVRQAPGQGLEWMGIIKPSNGSTNYAQKFQGRVTMTRDTSTSTVYMELSSLRSEDTAVYYCARAEITTEFDYWGQGTLVTVSS VL: EIVLTQSPGTLSLSPGERATLSCRASQSVESYAQSYLHWYQQKPGQAPRLLIYRGSTRESGIPDRFSGSGSGTDFTLTISRLEPEDFAVYYCQQSKEEPLTFGGGTKVEIK
65000
